PROTOCOL NOTES: NCI Yeast Anticancer Drug Screen. Data for the bub3 strain (AID 167)
EXPERIMENTAL CONDITIONS: S. cerevisiae bub3 mutant strain, at 50.0 µM, active compounds read high
About 79,000 compounds went through this panel and 15% of them were active in at least one assay; those are over-represented in the sample as a whole.
READOUT KIND: growth inhibition (%)
Please state the figure in %; there is no need to write the unit.

Given NCCCn1c2ccccc2c2cnccc21 , state its recorded growth inhibition.
1.05

Any idea what growth inhibition was measured for CCc1[nH]nc(-c2n[nH]c(CC)c2C)c1C ?
-13.7

What measured growth inhibition goes with COC1(OC)C2(Cl)C(Cl)=C(Cl)C1(Cl)C1C=CC=CC12 (stereo not drawn) ?
-18.6

// lookup growth inhibition for CCN1CCC(CC(c2ccccc2)c2ccccc2)C1 (stereo not drawn)
10.1

So what's the measured growth inhibition for this one? O=C1C=CC(=O)c2c(Cl)ccc(O)c21
-20.2

Please look up its growth inhibition: COC(=O)c1cc(C(=CCC[C@H]2CC[C@@]3(C)C(CCC4C3CC[C@@]3(C)C4CC[C@@H]3C(C)CCCC(C)C)C2)c2cc(Cl)c(O)c(C(=O)OC)c2)cc(Cl)c1O (stereo partly drawn)
5.15

Fill in the blank: the reported growth inhibition of O=c1c2c([nH]c3c1ccc1[nH]c4c(c(=O)c13)CCCC4)CCCC2 is ____.
-8.5

So what does the record say about growth inhibition for CCC(C)c1cnc(CC(C)C)c(=O)[nH]1 (stereo not drawn) ?
-9.6
